Where do these numbers come from? They come from PubChem BioAssay.

- Test system: Inhibin beta A chain (activin A)
- EXPERIMENTAL_DETAILS: small molecules binding activin A – biochemical, small-molecule microarray, 635 nm fluorescence scan, primary screen (AID 1107);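 further: mouse activin A protein probed at 4.33 µg/mL on printed slides; score merges bound-protein fluorescence near 667 nm with spot signal-to-noise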
- SETUP_CONDITIONS: INHBA, higher = more signal
# composite z-score per entry

Consider the following illustrative entries.
- COMPOUND: "CCCC#C[Si](O[C@H](CC)c1cn(Cc2ccccc2)nn1)(C(C)C)C(C)C"
  TARGET_UNDER_TEST: "Inhibin beta A chain (activin A)"
  REPORTED: -0.0374
- COMPOUND: "O=C1O[C@H](Cc2ccccc2)[C@@H]2[C@H]3C=CCCC=C3CN2[C@H]1Cc1ccc(O)cc1"
  TARGET_UNDER_TEST: "Inhibin beta A chain (activin A)"
  REPORTED: 0.991
- COMPOUND: "COc1cc(OC)c(C(O)C2C=CC3C(=O)N(c4ccccc4)C(=O)C3N2Nc2ccc(C(C)C)cc2)cc1Br (stereo unspecified)"
  TARGET_UNDER_TEST: "Inhibin beta A chain (activin A)"
  REPORTED: 0.735
- COMPOUND: "COC(=O)[C@@]1(Cc2ccc(OC)cc2)[C@H]2c3cc(C(=O)N4CCCC4)n(Cc4c(CO)[nH]cc(C)c4=O)c3C[C@H]2CN1C(=O)c1ccccc1"
  TARGET_UNDER_TEST: "Inhibin beta A chain (activin A)"
  REPORTED: 1.02
- COMPOUND: "CC(C)C(CO)N1C(=O)[C@@H]2C3C(=O)OCCC/C=C\\[C@H]3OC23C=CCN(Cc2ccccc2)C(=O)[C@@H]13 (stereo partly specified)"
  TARGET_UNDER_TEST: "Inhibin beta A chain (activin A)"
  REPORTED: 0.111
- COMPOUND: "COc1cc(CO)cc(I)c1O[C@H]1C=C(C(=O)NCCO)C[C@@H]2O[C@H]12"
  TARGET_UNDER_TEST: "Inhibin beta A chain (activin A)"
  REPORTED: 0.643
- COMPOUND: "CC(C)OC(=O)CC(=O)CC(O)c1cccc([N+](=O)[O-])c1 (stereo unspecified)"
  TARGET_UNDER_TEST: "Inhibin beta A chain (activin A)"
  REPORTED: 0.916
- COMPOUND: "COC(=O)[C@@]1(Cc2ccccc2)[C@H]2c3cc(C(=O)N(C)C)n(CCSC(=N)N)c3C[C@H]2CN1C(=O)c1ccccc1"
  TARGET_UNDER_TEST: "Inhibin beta A chain (activin A)"
  REPORTED: 1.01
- COMPOUND: "C[C@]1(C(=O)O)c2ccccc2C(=O)N(Cc2cc(F)cc(C(F)(F)F)c2)[C@H]1c1ccc(CO)cc1"
  TARGET_UNDER_TEST: "Inhibin beta A chain (activin A)"
  REPORTED: 0.561
- COMPOUND: "CCCCC(O)C1C=CC2C(=O)N(c3ccccc3)C(=O)C2N1Nc1ccc(C#N)cc1 (stereo unspecified)"
  TARGET_UNDER_TEST: "Inhibin beta A chain (activin A)"
  REPORTED: 0.513

input: Which composite z-score value is on record for CC(C)C(=C=CC[C@H](O)c1ccccc1OCCO)C[C@H](O)c1cc(Cl)cc(Cl)c1O ?
output: 0.149

input: Lookup O=C(NCc1ccc(F)cc1)[C@H]1C[C@H]2C(=O)N3CCC[C@H]3C(=O)N2[C@H]1c1ccc(O)cc1
output: -0.964

input: Lookup CC(C)(C)N1CC=CC23O[C@@H]4C=CCCOC(=O)C4[C@H]2C(=O)N(CCCCCCO)[C@@H]3C1=O (stereo partly specified)
output: 0.406

input: Lookup COc1ccc(C(O)C2C=CC3C(=O)N(c4ccccc4)C(=O)C3N2Nc2ccc(C#N)cc2)cc1OCc1ccccc1 (stereo unspecified)
output: 0.898

input: Lookup O=C1C[C@@](C(=O)O)(c2ccc([N+](=O)[O-])cc2)[C@@H](c2ccc(CO)cc2)N1C1CCCCC1
output: 0.633

input: Lookup CC(C)(C)OC(=O)CC[C@@]1(C(=O)NCCN2CCOCC2)N=C(c2ccc(OCCCO)cc2)O[C@@H]1c1ccccc1CN=[N+]=[N-]
output: 0.67

---

# composite z-score per entry
- Tested on: XIP peptide (Xip251-270) binding
- EXPERIMENTAL_DETAILS: XIP fragment 251-270 binding compounds – biochemical, small-molecule microarray, fluorescence 635/667 nm, 0.1 µg/mL protein, primary screen (AID 1182)
- SETUP_CONDITIONS: fluorescent protein binding, 635 nm, higher = more signal, called active from +8 up or from −8 down
Active and inactive are the calls of the source.

Consider the following illustrative entries.
- MOLECULE: "COCCOC(=O)N1C(=O)[C@@]2(c3cc(C#CCC(C(=O)OC)C(=O)OC)ccc31)[C@H](C(=O)Nc1nc3ccccc3s1)[C@H]1C(=O)O[C@H](c3ccccc3)[C@H](c3ccccc3)N1[C@@H]2c1ccc(OCCO)cc1"
  composite z-score: "1.7 (inactive)"
- MOLECULE: "CC(C)=CCCC=C(C)C(O)C1C=CC2C(=O)N(c3ccccc3)C(=O)C2N1Nc1ccc(C#N)cc1 (stereo unspecified)"
  composite z-score: "1.1 (inactive)"
- MOLECULE: "Cc1ccc(C(C)CC(O)C2C=CC3C(=O)N(C)C(=O)C3N2Nc2ccccc2)o1 (stereo unspecified)"
  composite z-score: "0.476 (inactive)"
- MOLECULE: "COC(=O)[C@@]1(Cc2ccc(F)cc2)[C@H]2c3cc(C(=O)N(C)C)n(C)c3C[C@H]2CN1C(=O)c1ccccc1"
  composite z-score: "-0.0622 (inactive)"
- MOLECULE: "COC(=O)[C@H](Cc1ccccc1)N1CC2=CCCC=C[C@@H]2[C@H]1[C@H](O)Cc1ccccc1"
  composite z-score: "0.444 (inactive)"

input: Which composite z-score value is on record for CC1CC/C=C\[C@H]2OC34C=CCN(C(C)(C)C)C(=O)[C@H]3N(CCCO)C(=O)[C@@H]4C2C(=O)O1 (stereo partly specified) ?
output: 0.453 (inactive)

input: Lookup COc1cc(CO)cc(I)c1O[C@H]1C=C(C(=O)NCCO)C[C@@H]2O[C@H]12
output: 0.28 (inactive)

input: Lookup Cc1ccc(S[C@]2(C(=O)NCC(F)(F)F)CC(=O)N(Cc3ccccc3C(F)(F)F)[C@@H]2c2ccc(CO)cc2)cc1
output: 0.859 (inactive)

input: Lookup CCOC(=O)C1=CC[C@@H](c2ccc(OC)cc2)N(S(=O)(=O)c2ccc(C)cc2)[C@H]1c1ccc(C)cc1
output: 0.3 (inactive)

input: Lookup COC(=O)C(CC#Cc1ccc2c(c1)[C@]1(C(=O)N2)[C@H](c2ccc(OCCO)cc2)N2[C@H](c3ccccc3)[C@H](c3ccccc3)OC(=O)[C@H]2[C@@H]1C(=O)N1CCCCCCC1)C(=O)OC
output: 2.15 (inactive)

---

- TARGET_UNDER_TEST: Pro-neuregulin-1, membrane-bound isoform (Homo sapiens) (UniProt Q02297)
- Sequence (Q02297 whole entry, looked up, canonical isoform): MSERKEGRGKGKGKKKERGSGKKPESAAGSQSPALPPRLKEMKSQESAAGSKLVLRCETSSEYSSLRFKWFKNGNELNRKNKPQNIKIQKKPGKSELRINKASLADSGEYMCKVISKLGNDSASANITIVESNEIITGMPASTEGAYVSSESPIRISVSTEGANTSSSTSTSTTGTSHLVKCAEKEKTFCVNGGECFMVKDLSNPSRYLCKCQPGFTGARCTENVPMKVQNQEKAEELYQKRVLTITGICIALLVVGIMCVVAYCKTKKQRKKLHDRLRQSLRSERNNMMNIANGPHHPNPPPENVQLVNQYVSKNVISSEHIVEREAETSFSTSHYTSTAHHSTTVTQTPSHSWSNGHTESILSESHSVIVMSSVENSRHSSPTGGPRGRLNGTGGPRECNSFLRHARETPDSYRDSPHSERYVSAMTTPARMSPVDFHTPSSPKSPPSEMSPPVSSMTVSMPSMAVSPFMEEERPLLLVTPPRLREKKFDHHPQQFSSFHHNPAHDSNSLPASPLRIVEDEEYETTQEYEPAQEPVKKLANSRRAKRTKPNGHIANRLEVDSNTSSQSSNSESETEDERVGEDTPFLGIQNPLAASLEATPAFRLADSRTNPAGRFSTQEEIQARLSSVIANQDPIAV
- EXPERIMENTAL_DETAILS: small molecules binding neuregulin-1 protein – biochemical, small-molecule microarray, fluorescence 635/667, psychiatric disease protein project, primary screen (AID 1075);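 further: score combines 667 nm spot fluorescence with signal to noise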
- SETUP_CONDITIONS: NRG1 binding, 635 nm fluorescence, higher = more signal
READOUT_KIND: composite z-score

Consider the following illustrative entries.
- MOLECULE: "COC(=O)c1cccc([C@H]2OC(=CC(=O)OC(C)C)C[C@@H](c3cccc(C(=O)OC)c3)O2)c1"
  composite z-score: 1.4
- MOLECULE: "CCCC#C[Si](O[C@H](CC)c1cn(Cc2ccccc2)nn1)(C(C)C)C(C)C"
  composite z-score: 0.53
- MOLECULE: "CCOC(=O)C[C@H]1[C@H](OC(=O)c2ccccc2-c2ccccc2)[C@@H](NC(=O)c2ccc3ccccc3c2)c2cc(OCCCO)ccc2N1C(=O)Cc1ccc(OC)cc1"
  composite z-score: 0.0671
- MOLECULE: "O=C(O)[C@H](Cc1ccccc1)n1cc(C2(O)CCCCC2)nn1"
  composite z-score: 0.0741
- MOLECULE: "COC(=O)[C@@]1(Cc2ccc(F)cc2)[C@H]2c3cc(C(=O)N4CCCC4)n(Cc4ccccn4)c3C[C@H]2CN1C(=O)c1ccccc1"
  composite z-score: 1.29

input: Which composite z-score value is on record for CN1C(=O)C2C(C1=O)C1C=C(c3ccc(CO)cc3)C2C(C2CC2)N1C (stereo not drawn) ?
output: 1.16

input: Lookup CN(C)C(=O)[C@@]1(Cc2ccccc2CN=[N+]=[N-])COC(c2ccc(OCCCO)cc2)=N1
output: 1.63

input: Lookup COCCOC(=O)N1C(=O)[C@@]2(c3cc(C#CCC(C(=O)OC)C(=O)OC)ccc31)[C@H](C(=O)Nc1nc3ccccc3s1)[C@H]1C(=O)O[C@H](c3ccccc3)[C@H](c3ccccc3)N1[C@@H]2c1ccc(O)cc1
output: 0.158
